Hey, just so you know, these numbers are from ChEMBL document CHEMBL3885861.

Exercise: for every item that follows, state its recorded APTT.
Organism: Rattus norvegicus
Protocol: Open TG-GATES - Regimen: Single
Type: toxicity, organism-based, Sprague-Dawley
Parameters: regimen Single, gender Male, age 6 weeks
Experimental Setup: in vivo, po, 300 mg/kg, 3 h, tissue Blood, route gavage, dose level Middle
I only need the number, in s, no unit after it.

The recorded APTT for "NC(N)=Nc1nc(CSCCC(N)=NS(N)(=O)=O)cs1" is 21.3

The recorded APTT for CCOC(=O)CCC(=O)O[C@H]1[C@H](O[C@@H]2[C@@H](C)[C@H](O[C@H]3C[C@@](C)(OC)[C@@H](O)[C@H](C)O3)[C@@H](C)C(=O)O[C@H](CC)[C@@](C)(O)[C@H](O)[C@@H](C)C(=O)[C@H](C)C[C@@]2(C)O)O[C@H](C)C[C@@H]1N(C)C [ERYTHROMYCIN ETHYLSUCCINATE] is 21.7

The recorded APTT for "COC1=CC(=O)C[C@@H](C)[C@]12Oc1c(Cl)c(OC)cc(OC)c1C2=O" is 18.3

The recorded APTT for COc1ccc2[nH]c([S+]([O-])Cc3ncc(C)c(OC)c3C)nc2c1 (centres undefined) is 18.7

###

Species on record: Rattus norvegicus
Protocol: Open TG-GATES - Regimen: Single
Format: toxicity, organism-based, Sprague-Dawley
Set-up: regimen Single, gender Male, age 6 weeks
Experimental Setup: in vivo, po, 0 mg/kg, 24 h, tissue Blood, route gavage, dose level Control
Measured Property: Ret
The reply must contain the numeric value and, after it, the unit.

The recorded Ret for CCCNC(=O)NS(=O)(=O)c1ccc(Cl)cc1 [CHLORPROPAMIDE] is 9.2%

The recorded Ret for "CN(C)CCN(Cc1cccs1)c1ccccn1" is 8%

The recorded Ret for CCOC(=O)CCC(=O)O[C@H]1[C@H](O[C@@H]2[C@@H](C)[C@H](O[C@H]3C[C@@](C)(OC)[C@@H](O)[C@H](C)O3)[C@@H](C)C(=O)O[C@H](CC)[C@@](C)(O)[C@H](O)[C@@H](C)C(=O)[C@H](C)C[C@@]2(C)O)O[C@H](C)C[C@@H]1N(C)C [ERYTHROMYCIN ETHYLSUCCINATE] is 7.8%

###

Exercise: for every item that follows, state its recorded gamma-GTP.
Species on record: Rattus norvegicus
Protocol: Open TG-GATES - Regimen: Daily Repeat
Format: toxicity, organism-based, Sprague-Dawley
Parameters: regimen Daily Repeat, gender Male, age 6 weeks
Experimental Setup: in vivo, po, 300 mg/kg, […], tissue Plasma, route gavage, dose level Middle, time 7 day
I only need the number, in IU/L, no unit after it.

The recorded gamma-GTP for CCOC(=O)CCC(=O)O[C@H]1[C@H](O[C@@H]2[C@@H](C)[C@H](O[C@H]3C[C@@](C)(OC)[C@@H](O)[C@H](C)O3)[C@@H](C)C(=O)O[C@H](CC)[C@@](C)(O)[C@H](O)[C@@H](C)C(=O)[C@H](C)C[C@@]2(C)O)O[C@H](C)C[C@@H]1N(C)C [ERYTHROMYCIN ETHYLSUCCINATE] is 1.6

The recorded gamma-GTP for COc1ccc2[nH]c([S+]([O-])Cc3ncc(C)c(OC)c3C)nc2c1 (stereo not given) [OMEPRAZOLE] is 1

The recorded gamma-GTP for CCOc1ccc(NC(=O)CC(C)O)cc1 (stereo not given) [BUCETIN] is 1

The recorded gamma-GTP for NC(N)=Nc1nc(CSCCC(N)=NS(N)(=O)=O)cs1 [FAMOTIDINE] is 1.4

The recorded gamma-GTP for COC1=CC(=O)C[C@@H](C)[C@]12Oc1c(Cl)c(OC)cc(OC)c1C2=O [GRISEOFULVIN] is 0.8

###

Exercise: for every item that follows, state its recorded Hb.
Species on record: Rattus norvegicus
Protocol: Open TG-GATES - Regimen: Daily Repeat
Format: toxicity, organism-based, Sprague-Dawley
Set-up: regimen Daily Repeat, gender Male, age 6 weeks
Experimental Setup: in vivo, po, 300 mg/kg, […], tissue Blood, route gavage, dose level Middle, time 28 day
I only need the number, in g/dL, no unit after it.

The recorded Hb for CCOc1ccc(NC(=O)CC(C)O)cc1 (stereo not given) is 14.7

The recorded Hb for CCOC(=O)CCC(=O)O[C@H]1[C@H](O[C@@H]2[C@@H](C)[C@H](O[C@H]3C[C@@](C)(OC)[C@@H](O)[C@H](C)O3)[C@@H](C)C(=O)O[C@H](CC)[C@@](C)(O)[C@H](O)[C@@H](C)C(=O)[C@H](C)C[C@@]2(C)O)O[C@H](C)C[C@@H]1N(C)C [ERYTHROMYCIN ETHYLSUCCINATE] is 15.6

The recorded Hb for COc1ccc2[nH]c([S+]([O-])Cc3ncc(C)c(OC)c3C)nc2c1 (stereo not given) is 14.5

The recorded Hb for "NC(N)=Nc1nc(CSCCC(N)=NS(N)(=O)=O)cs1" is 15.4

The recorded Hb for "COC1=CC(=O)C[C@@H](C)[C@]12Oc1c(Cl)c(OC)cc(OC)c1C2=O" is 15.2

###

Exercise: for every item that follows, state its recorded Ht.
Species: Rattus norvegicus
Protocol: Open TG-GATES - Regimen: Single
Type: toxicity, organism-based, Sprague-Dawley
Design: regimen Single, gender Male, age 6 weeks
Experimental Setup: in vivo, po, 0 mg/kg, 9 h, tissue Blood, route gavage, dose level Control
I only need the number, in %, no unit after it.

The recorded Ht for CC(C)OC(=O)C(C)(C)Oc1ccc(C(=O)c2ccc(Cl)cc2)cc1 [FENOFIBRATE] is 39.3

The recorded Ht for "COc1cc2c(c(OC)c1OC)-c1ccc(OC)c(=O)cc1[C@@H](NC(C)=O)CC2" is 38.9

The recorded Ht for "O=C(CCCN1CCC(O)(c2ccc(Cl)cc2)CC1)c1ccc(F)cc1" is 41

The recorded Ht for "Cc1ccc(C)c(OCCCC(C)(C)C(=O)O)c1" is 41

The recorded Ht for "NNC(=O)c1ccncc1" is 37.7

###

Organism: Rattus norvegicus
Protocol: Open TG-GATES - Regimen: Single
Format: toxicity, organism-based, Sprague-Dawley
Set-up: regimen Single, gender Male, age 6 weeks
Experimental Setup: in vivo, po, 100 mg/kg, 6 h, route gavage, dose level Low
Measured Property: TERMINAL_BW (g)
I only need the number, in g, no unit after it.

The recorded TERMINAL_BW for COc1ccc2[nH]c([S+]([O-])Cc3ncc(C)c(OC)c3C)nc2c1 (centres undefined) is 217.8

The recorded TERMINAL_BW for "COC1=CC(=O)C[C@@H](C)[C@]12Oc1c(Cl)c(OC)cc(OC)c1C2=O" is 209.8

The recorded TERMINAL_BW for CCOC(=O)CCC(=O)O[C@H]1[C@H](O[C@@H]2[C@@H](C)[C@H](O[C@H]3C[C@@](C)(OC)[C@@H](O)[C@H](C)O3)[C@@H](C)C(=O)O[C@H](CC)[C@@](C)(O)[C@H](O)[C@@H](C)C(=O)[C@H](C)C[C@@]2(C)O)O[C@H](C)C[C@@H]1N(C)C [ERYTHROMYCIN ETHYLSUCCINATE] is 213.8

The recorded TERMINAL_BW for "NC(N)=Nc1nc(CSCCC(N)=NS(N)(=O)=O)cs1" is 212.2

###

Species: Rattus norvegicus
Protocol: Open TG-GATES - Regimen: Single
Assay type: toxicity, organism-based, Sprague-Dawley
Parameters: regimen Single, gender Male, age 6 weeks
Experimental Setup: in vivo, po, 0 mg/kg, 6 h, tissue Plasma, route gavage, dose level Control
Exercise: for every item that follows, state its recorded AST.
The reply must contain the numeric value and, after it, the unit.

The recorded AST for CCCNC(=O)NS(=O)(=O)c1ccc(Cl)cc1 [CHLORPROPAMIDE] is 74.4 IU/L

The recorded AST for "COC1=CC(=O)C[C@@H](C)[C@]12Oc1c(Cl)c(OC)cc(OC)c1C2=O" is 67 IU/L

The recorded AST for "NC(N)=Nc1nc(CSCCC(N)=NS(N)(=O)=O)cs1" is 64.2 IU/L

The recorded AST for "CN(C)CCCN1c2ccccc2CCc2ccc(Cl)cc21" is 76.6 IU/L

The recorded AST for "CN(C)CCCN1c2ccccc2CCc2ccccc21" is 99.2 IU/L

The recorded AST for "O=C(CCCN1CCC(O)(c2ccc(Cl)cc2)CC1)c1ccc(F)cc1" is 62 IU/L

The recorded AST for "COc1cc2c(c(OC)c1OC)-c1ccc(OC)c(=O)cc1[C@@H](NC(C)=O)CC2" is 59 IU/L

The recorded AST for "C[C@@H]1C[C@H]2[C@@H]3CCC4=CC(=O)C=C[C@]4(C)[C@@]3(F)[C@@H](O)C[C@]2(C)[C@@]1(O)C(=O)CO" is 65.2 IU/L

The recorded AST for "CN1C(=O)CN=C(c2ccccc2)c2cc(Cl)ccc21" is 60 IU/L
